Answer each item with its documented MIC.
System: P. aeruginosa MMX Mex parent strain
procedure_summary: MIC against P. aeruginosa MMX Mex parent strain
Type: cell-based
details: Pseudomonas aeruginosa

[in] # get_value(readout='MIC', item= CSC1O[C@H]([C@H](NC(=O)[C@H]2NC[C@@H]3CC=CCO[C@H]32)[C@H](C)Cl)C(O)[C@@H](O)[C@H]1O (some centres unmarked) )
[out] > 64 µg/mL

[in] # get_value(readout='MIC', item= Cc1ccc(S(=O)(=O)OCC2O[C@H]([C@H](NC(=O)[C@H]3NC[C@@H]4CC=CCO[C@H]43)[C@@H](C)O)C(O)[C@@H](O)[C@H]2O)cc1 (some centres unmarked) )
[out] > 64 µg/mL

[in] # get_value(readout='MIC', item= CSC1O[C@H]([C@H](NC(=O)[C@H]2NC[C@@H]3CC(c4ccccc4)=CCO[C@H]32)[C@H](C)Cl)C(O)[C@@H](O)[C@H]1O (some centres unmarked) )
[out] > 32 µg/mL

[in] # get_value(readout='MIC', item= CSC1O[C@H]([C@H](NC(=O)[C@H]2NC[C@@H]3CC=CCO[C@H]32)[C@H](C)Sc2ccc(-c3cncnc3)cc2)C(O)[C@@H](O)[C@H]1O (some centres unmarked) )
[out] > 64 µg/mL

[in] # get_value(readout='MIC', item= CSC1O[C@H]([C@H](NC(=O)[C@H]2NC[C@@H]3CC(c4ccc(F)cc4)=CCO[C@H]32)[C@H](C)Cl)C(O)[C@@H](O)[C@H]1O (some centres unmarked) )
[out] > 64 µg/mL

[in] # get_value(readout='MIC', item= C=CC1=CCO[C@@H]2[C@H](CN[C@@H]2C(=O)N[C@H]([C@H](C)Cl)[C@H]2OC(SC)[C@H](O)[C@H](O)C2O)C1 (some centres unmarked) )
[out] > 32 µg/mL

[in] # get_value(readout='MIC', item= CSC1O[C@H]([C@H](NC(=O)[C@@H]2[C@@H]3OCC=CC[C@H]3CN2C)[C@H](C)Sc2ccc(-c3cncnc3)cc2)C(O)[C@@H](O)[C@H]1O (some centres unmarked) )
[out] > 64 µg/mL

[in] # get_value(readout='MIC', item= C[C@@H](O)[C@@H](NC(=O)[C@H]1NC[C@@H]2CC=CCO[C@H]21)[C@H]1OC(CN=[N+]=[N-])[C@H](O)[C@H](O)C1O (some centres unmarked) )
[out] > 64 µg/mL

---

Answer each item with its documented MIC.
Tested on: S. pneumoniae ATCC 49619
procedure_summary: MIC against S. pneumoniae ATCC 49619
Type: cell-based
details: Streptococcus pneumoniae, ATCC49619; S. pneumoniae ATCC 49619; read-out: MIC

[in] S. pneumoniae ATCC 49619 / MIC / CSC1O[C@H]([C@H](NC(=O)[C@H]2NC[C@@H]3CC(F)(F)CCO[C@H]32)[C@H](C)Cl)C(O)[C@@H](O)[C@H]1O (some centres unmarked) : value?
[out] ≤ 0.06 µg/mL

[in] S. pneumoniae ATCC 49619 / MIC / CSC1O[C@H]([C@H](NC(=O)[C@H]2NC[C@@H]3CC(NCc4cccc(F)c4)CCO[C@H]32)[C@H](C)Cl)C(O)[C@@H](O)[C@H]1O (some centres unmarked) : value?
[out] 8 µg/mL

[in] S. pneumoniae ATCC 49619 / MIC / CSC1O[C@H]([C@H](NC(=O)[C@H]2NC[C@@H]3CC=CCO[C@H]32)[C@H](C)Cl)C(O)[C@@H](O)[C@H]1O (some centres unmarked) : value?
[out] ≤ 0.06 µg/mL

[in] S. pneumoniae ATCC 49619 / MIC / COc1ccc(C2=CCO[C@@H]3[C@H](CN[C@@H]3C(=O)N[C@H]([C@H](C)Cl)[C@H]3OC(SC)[C@H](O)[C@H](O)C3O)C2)cc1 (some centres unmarked) : value?
[out] ≤ 0.06 µg/mL

[in] S. pneumoniae ATCC 49619 / MIC / CSC1O[C@H]([C@H](NC(=O)[C@H]2NC[C@@H]3C[C@@H](c4cccc(F)c4)CCO[C@H]32)[C@H](C)Cl)C(O)[C@@H](O)[C@H]1O (some centres unmarked) : value?
[out] ≤ 0.06 µg/mL
